Test system: intracellular proteome of ENR+CD and ENR organoids
Assay: LC-MS/MS TMT proteomics of ENR+CD versus ENR organoids
Assay type: cell-based, C57BL/6 mice
Details: protein abundance ratio ENR+CD versus ENR organoids, sample pair M1-2; LC-MS/MS TMT proteomics
measured attribute: M1-2 Log2 Median Normalized

molecule	value observed
Q9CZT6 (protein, UniProt Q9CZT6 1-276, looked up, full-length) MADDLGDEWWENQPAAASSPEQSGGEEGGDTEMTQQDTAPVPEKTQQPTECFLTQTKEPKAEDSRKTRKWKKKKISDILAKSEPKPGTPEDLQKLIRDHYSSSRSVIELEELHLPDSCFLKANDLTHSLSSYLKEICPKWVKLRKTHNEKKSVLMLILCSSAVRALELIRSLTAFKGDAKVMKLFAKHIKVQEQVKLLEKRVIHLGVGTPGRIKELVKQDGLHLNPLKFLVFDWNWRDQKLRRMMDIPEIRKEVFELLDMGVFSLCKSDSLKLGLF	−0.965
